Each entry below carries its recorded koff.
SYSTEM NAME: T1, A beta oligomer (synthetic A beta1-40, HCl form, 0.1 mg/ml in PBS, incubated at 37 degrees C for one hour) (UniProt P05067 672-711)
T1 construct: domain: A beta1-40; non-fibrous multimer of the peptide; also called A beta 1-40 oligomer
EXPERIMENTAL DETAILS: SPR (Biacore 3000)

>  <BINDER>
IR-112 antibody (antibody, mouse IgG2a, V domains shown, mouse IgG2a) VH: QVTLKESGPGILKPSQTLSLTCSFSGFSLSTSGMGVGWIRQPSGKGLEWLAHIWWDDDKYYNPSLKSQLTISKDTSRNQVFLKITSVDTADTATYYCARRSMITTNDYFDYWGQGTTLTVSS VL: DVLMTQTPLSLPVSLGDQASISCRSSQSIVHSNGNTYLEWYLQKPGQSPKLLIYKVSNRFSGVPDRFSGSGSGTDFTLKISRVEAEDLGVYYCFQGSHVPPTFGGGTKLEIK

>  <koff, s⁻¹>
0.00376

$$$$
>  <BINDER>
IR-139 antibody (antibody, mouse IgG2b, V domains shown, mouse IgG2b) VH: DVQLVESGGGLVQPGGSRKLSCAASGFTFSSFGMHWVRQAPEKGLEWVAYISSGSSTIYYADTVKGRFTISRDNPKNTLFLQMTSLRSEDTAMYYCARDEGYFDYWGQGTTLTVSS VL: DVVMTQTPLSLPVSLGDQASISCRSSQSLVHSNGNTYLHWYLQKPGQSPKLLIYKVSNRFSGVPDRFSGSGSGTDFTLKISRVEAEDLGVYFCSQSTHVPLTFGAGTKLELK

>  <koff, s⁻¹>
0.00165

$$$$
